- Tested on: CHO cell line that expresses an antibody
- test: Batch experiment with the substances according to the invention (Example 1)
- Assay type: cell-based, Chinese hamster
- condition-label: batch mode, day 11; substance 0.5-1 g/l; basal medium glucose 4.7 g/l, glutamine […]
What Specific lactate production (Lac/VCD) was measured for each of the following?
Please give the numeric answer without any surrounding text.

Data request: What value of measured Specific lactate production (Lac/VCD) is listed for CC(=O)C(=O)[O-].[Na+] [Sodium pyruvate] ?
Data returned: 0.19

Data request: What value of measured Specific lactate production (Lac/VCD) is listed for O=C([O-])CCC(=O)[O-].[Na+].[Na+] [Sodium succinate] ?
Data returned: 0.10

Data request: What value of measured Specific lactate production (Lac/VCD) is listed for O=C([O-])/C=C/C(=O)[O-].[Na+].[Na+] [Sodium fumarate] ?
Data returned: 0.10

Data request: What value of measured Specific lactate production (Lac/VCD) is listed for NCCC[C@H](N)C(=O)O [Ornithine] ?
Data returned: 0.09

Data request: What value of measured Specific lactate production (Lac/VCD) is listed for O=C(O)CC(O)C(=O)O (stereo not drawn) [Malic acid] ?
Data returned: 0.07

Data request: What value of measured Specific lactate production (Lac/VCD) is listed for CC(O)C(=O)[O-].[Na+] (stereo not drawn) [Sodium lactate] ?
Data returned: 0.09

Data request: What value of measured Specific lactate production (Lac/VCD) is listed for O=C(O)C(O)C(O)C(=O)O (stereo not drawn) [Tartaric acid] ?
Data returned: 0.09

Data request: What value of measured Specific lactate production (Lac/VCD) is listed for O=C(O)CCCCC(=O)O [Adipic acid] ?
Data returned: 0.12

Data request: What value of measured Specific lactate production (Lac/VCD) is listed for NC(=O)NCCC[C@H](N)C(=O)O [Citrulline] ?
Data returned: 0.18

---

What Viable Cell Density (VCD) was measured for each of the following?
- Test system: CHO cell line that expresses an antibody
- test: Batch experiment with the substances according to the invention (Example 1)
- Assay type: cell-based, Chinese hamster
- condition-label: batch mode, day 11; substance 0.5-1 g/l; basal medium glucose 4.7 g/l, glutamine […]

Data request: What value of measured Viable Cell Density (VCD) is listed for `NC(=O)NCCC[C@H](N)C(=O)O` ?
Data returned: 8.2 E5/ml

Data request: What value of measured Viable Cell Density (VCD) is listed for `O=C(O)CCCCC(=O)O` ?
Data returned: 10.6 E5/ml

Data request: What value of measured Viable Cell Density (VCD) is listed for O=C(O)CC(O)C(=O)O (centres unmarked) ?
Data returned: 17.5 E5/ml

Data request: What value of measured Viable Cell Density (VCD) is listed for O=C([O-])/C=C/C(=O)[O-].[Na+].[Na+] [Sodium fumarate] ?
Data returned: 14.3 E5/ml

Data request: What value of measured Viable Cell Density (VCD) is listed for CC(O)C(=O)[O-].[Na+] (centres unmarked) [Sodium lactate] ?
Data returned: 11.4 E5/ml

Data request: What value of measured Viable Cell Density (VCD) is listed for O=C(O)C(O)C(O)C(=O)O (centres unmarked) ?
Data returned: 8.7 E5/ml

Data request: What value of measured Viable Cell Density (VCD) is listed for O=C([O-])CCC(=O)[O-].[Na+].[Na+] [Sodium succinate] ?
Data returned: 16.3 E5/ml

Data request: What value of measured Viable Cell Density (VCD) is listed for CC(=O)C(=O)[O-].[Na+] [Sodium pyruvate] ?
Data returned: 10.3 E5/ml

Where do the numbers come from? From patent US8426202B2.
